# System: OVCAR-4
# procedure.text: NCI tumour cell line growth inhibition, 48 h
Active and inactive are the calls of the source. Rule as the data show it: active = GI50 up to about 1.1 µM and inactive = higher.
Use one of these outcomes when replying: active, inactive

# count of solved cases: 2
compound	class.name
O=C1c2c(Br)sc(Br)c2[C@H]2OC(=S)N[C@@H]12	inactive
NC(=O)c1csc(C2(O)COC(CO)C2O)n1 (centres undefined)	inactive

Qu. Hi, do you know how c1cc(-c2cn3c(n2)SCC3)ccn1 came out in this test?
Ans. inactive

Qu. Ok, now CCOc1cccc(/C=N\c2ccccc2SSc2ccccc2/N=C\c2cccc(OCC)c2O)c1O
Ans. inactive

Qu. Ok, now O=C(CCc1nnc(S)[nH]1)Nc1cc(Cl)ccc1Cl
Ans. inactive

Qu. Ok, now Cc1ccsc1/C=N/Nc1cc(C)c2cccc(C)c2n1
Ans. inactive

Qu. Ok, now CC(C)NC(=O)OCc1nnn2c1C(OC(=O)NC(C)C)CC2 (centres undefined)
Ans. inactive

* * *

List of GI50 values.
# Test system: TK-10
# procedure.text: NCI tumour cell line growth inhibition, 48 h
The source made the active and inactive calls. Cut-off read from the data, not from the text of the source: active = GI50 up to about 1.1 µM and inactive = higher.

Here are 5 compounds together with their reported answers.
compound	target.system	GI50
O=C1C(c2ccccc2)=C(c2ccccc2)C(c2ccc(CCCCCCc3ccc(C4=C(c5ccccc5)C(=O)C(c5ccccc5)=C4c4ccccc4)cc3)cc2)=C1c1ccccc1	TK-10	> 100 µM (inactive)
O=C(c1cccc(C(=O)c2ccc3c4c(cccc24)C(=O)N(c2ccccc2)C3=O)c1)c1ccc2c3c(cccc13)C(=O)N(c1ccccc1)C2=O	TK-10	69.8 µM (inactive)
CC(=O)Oc1cc(OC(C)=O)c2c(c1C)CC[C@@H]1[C@@H]2CC[C@]2(C)[C@@H](OC(C)=O)CC[C@@H]12	TK-10	20 µM (inactive)
COC(=O)C(Cc1ccccc1)NC(=O)C(CCCNC(=N)N)NC(=O)OCc1ccccc1 (stereo not drawn)	TK-10	> 100 µM (inactive)
Nc1ncnc2c1ncn2CCCCC(=O)O	TK-10	> 100 µM (inactive)

Qu. Recorded GI50 of COC(=O)C(=O)C(/C(=N/N)C(=O)Nc1ccccc1C(N)=O)c1nc2ccc([N+](=O)[O-])cc2nc1O (stereo not drawn) , please.
Ans. > 100 µM (inactive)

* * *

# Test system: ACHN
# procedure.text: NCI tumour cell line growth inhibition, 48 h
The source made the active and inactive calls. Cut-off read from the data, not from the text of the source: active = GI50 up to about 1.1 µM and inactive = higher.
Use one of these outcomes when replying: 1.0 (active), 0.0 (inactive)

# count of solved cases: 3
compound	target.system	class.name
C/C1=C/C2=CC(C)C[C@@H]2C(=O)[C@]2(C)C(=O)CC(C)(C)[C@H]2CC1=O (some centres undefined)	ACHN	0.0
COc1cc(C2c3cc4c(cc3[C@H](NC(=O)c3cccs3)C3COC(=O)[C@H]23)OCO4)cc(OC)c1OC (some centres undefined)	ACHN	1.0
O=C(NC(=O)c1cc2cc(Br)cc(Br)c2oc1=O)Oc1ccccc1	ACHN	0.0

Qu. Hi, do you know how COc1ccc(-c2c(C(C)=O)c(-c3ccccc3)n(C3OC(COC(C)=O)C(OC(C)=O)C(OC(C)=O)C3OC(C)=O)c(=S)c2C#N)cc1 (centres undefined) came out in this test?
Ans. 0.0

* * *

# Tested on: M19-MEL
# procedure.text: NCI tumour cell line growth inhibition, 48 h
The source made the active and inactive calls. No stated cut-off is given here; in the data, active = GI50 up to about 1.1 µM and inactive = higher.
Use one of these outcomes when replying: YES for active, NO for inactive

compound	class.name
CC1OC(OC2CC(O)(C(=O)CO)Cc3c(O)c4c(c(O)c32)C(=O)c2ccccc2C4=O)CC(N)C1O (centres undefined)	YES
O=C1C(c2ccccc2)=C(c2ccccc2)C(c2ccc(CCCCCCc3ccc(C4=C(c5ccccc5)C(=O)C(c5ccccc5)=C4c4ccccc4)cc3)cc2)=C1c1ccccc1	NO
Cc1cc(C)nc(NS(=O)(=O)c2ccc(NC(=O)c3cccc4c(Nc5ccc(S(=O)(=O)N=C(N)N)cc5)c5ccc(Cl)cc5nc34)cc2)n1	NO
CS(=O)(=O)N(N(CCCl)S(=O)(=O)c1ccccc1)S(C)(=O)=O	NO
CCN(CC)c1ccc2c(c1)Nc1cc(=C(C#N)C#N)c3ccccc3c1=N2	NO

Qu. Hi, do you know how O=C(CC1OC(O)C(Cl)=C1Cl)c1cccnc1 (centres undefined) came out in this test?
Ans. NO

Qu. Ok, now COC(=O)C(c1n[nH]c2ccccc12)C(C(=O)OC)c1n[nH]c2ccccc12 (centres undefined)
Ans. NO

Qu. Ok, now CCOC(=O)C(C#N)(Cc1c[nH]c2ccccc12)NC(C)=O (centres undefined)
Ans. NO

Qu. Ok, now CCOC(=O)c1nn2c(nc1=O)sc1ccc3ccccc3c12
Ans. NO

Qu. Ok, now C=CCONC(=O)c1ccc(Cl)cc1
Ans. NO
